Each recorded value in this set is attributed to patent US4906661A.

# Assay Info: Enzymatic hydrolysis by dog liver homogenate (procedure C)
# Format: in vitro ADME
# Assay Context: dog, liver homogenate; 37° C., 2 hr, procedure C; read-out: % Drug remaining, 2 HR, dog liver homogenate
# Description: Chemicals--Acetonitrile was "HPLC" grade. Distilled water was used to dissolve the compounds and 0.01 N HCl was used to dissolve compounds requiring an acidic pH for dissolution. […] The resultant supernatants were transferred to WISP.cndot. vials and analyzed using an HPLC assay developed for beta blockers. The hydrolysis of β-blockers by aqueous humor, blood, and liver homogenate was determined by disappearance of the compounds. […]
Result Type: remaining at 2 h (%)

# Compound, remaining at 2 h, %
records = [
    ("COC(=O)c1ccccc1OCC(O)CNCCNC(=O)C(C)C (stereo not drawn)", 0),
    ("COC(=O)c1ccccc1OCC(O)CNCCNC(=O)Cc1ccccc1 (stereo not drawn)", 0),
    ("COC(=O)c1ccccc1OCC(O)CNCCNC(C)=O (stereo not drawn)", 0),
]

---

# System Name: β1 receptors, guinea pig right atria (Cavia porcellus, UniProt H0W3H1)
# Sequence (H0W3H1 1-470): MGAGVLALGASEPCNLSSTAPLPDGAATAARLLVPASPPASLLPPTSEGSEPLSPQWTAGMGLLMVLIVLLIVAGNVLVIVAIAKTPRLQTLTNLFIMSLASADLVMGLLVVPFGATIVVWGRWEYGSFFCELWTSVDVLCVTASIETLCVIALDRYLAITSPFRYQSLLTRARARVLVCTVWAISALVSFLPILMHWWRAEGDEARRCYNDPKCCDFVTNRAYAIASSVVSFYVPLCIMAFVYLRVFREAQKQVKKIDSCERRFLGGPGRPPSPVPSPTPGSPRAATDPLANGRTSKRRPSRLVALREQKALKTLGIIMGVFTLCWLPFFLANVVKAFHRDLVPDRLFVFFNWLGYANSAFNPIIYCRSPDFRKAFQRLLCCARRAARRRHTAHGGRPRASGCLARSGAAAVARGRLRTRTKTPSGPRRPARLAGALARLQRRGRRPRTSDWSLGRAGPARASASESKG
# Assay Info: cell-based
# Assay Context: Table IV; mean, n ≥ 2, range ≤ ± 0.2 units; read-out: pA2 Atria (converted)
Result Type: Kb (nM)

These recorded examples may help you get a feel for the data.
# Compound, Units Text, Kb
records = [
    ("CCOC(=O)CCc1ccccc1OCC(O)CNCCNS(=O)(=O)c1ccc(C)cc1 (stereo not drawn)", "nM", 794),
    ("CCOC(=O)CCc1ccccc1OCC(O)CNCCNC(=O)C(C)C (stereo not drawn)", "nM", 63.1),
    ("CCOC(=O)CCc1ccc(OCC(O)CNC(C)(C)CNC(=O)OCC)cc1 (stereo not drawn)", "nM", 794),
    ("CCOC(=O)CCc1ccc(OCC(O)CNC(C)(C)CNS(=O)(=O)c2ccccc2)cc1 (stereo not drawn)", "nM", 501),
    ("CCOC(=O)c1ccccc1OCC(O)CNCCNC(=O)C(C)C (stereo not drawn)", "nM", 3.16),
    ("CCOC(=O)CCc1ccc(OCC(O)CNCCNC(=O)C(C)C)cc1 (stereo not drawn)", "nM", 794),
    ("CCOC(=O)CCc1ccc(OCC(O)CNCCNC(=O)Cc2ccccc2)cc1 (stereo not drawn)", "nM", 31.6),
    ("CCOC(=O)CCc1ccc(OCC(O)CNC(C)(C)CNC(N)=O)cc1 (stereo not drawn)", "nM", 1000),
    ("CCOC(=O)c1ccccc1OCC(O)CNCCNS(=O)(=O)c1ccc(C)cc1 (stereo not drawn)", "nM", 158),
    ("CCOC(=O)CCc1ccc(OCC(O)CNCCNS(=O)(=O)c2ccc(C)cc2)cc1 (stereo not drawn)", "nM", 1000),
]

a: CCOC(=O)CCc1ccc(OCC(O)CNC(C)(C)CNC(=O)N2CCOCC2)cc1 (stereo not drawn)
b: CCOC(=O)CCc1ccc(OCC(O)CNCCNC(C)=O)cc1 (stereo not drawn)
// which entry has the larger Kb value, a or b ? State the label of the item chosen.
b

A: CCOC(=O)CCc1ccc(OCC(O)CNC(C)(C)CNS(=O)(=O)N(C)C)cc1 (stereo not drawn)
B: CCOC(=O)NCC(C)(C)NCC(O)COc1ccccc1C(=O)OCC (stereo not drawn)
Could you point out whether the larger Kb belongs to A or to B ? Mark your answer with the label of the selected entry.
A
